Each recorded value in this set is attributed to patent EP4714976A1.

target: T1, human FGFR2b (Kaixia Biotechnology, catalog number FGR-HM1BB) (human, UniProt P21802-3 22-378); assay: BLI, antibody on AHC2 sensor
T1 construct: extracellular domain; bought; also called hFGFR2b; human FGFR2b protein
T1 sequence (P21802 other isoform, or with tags, fused parts or gaps): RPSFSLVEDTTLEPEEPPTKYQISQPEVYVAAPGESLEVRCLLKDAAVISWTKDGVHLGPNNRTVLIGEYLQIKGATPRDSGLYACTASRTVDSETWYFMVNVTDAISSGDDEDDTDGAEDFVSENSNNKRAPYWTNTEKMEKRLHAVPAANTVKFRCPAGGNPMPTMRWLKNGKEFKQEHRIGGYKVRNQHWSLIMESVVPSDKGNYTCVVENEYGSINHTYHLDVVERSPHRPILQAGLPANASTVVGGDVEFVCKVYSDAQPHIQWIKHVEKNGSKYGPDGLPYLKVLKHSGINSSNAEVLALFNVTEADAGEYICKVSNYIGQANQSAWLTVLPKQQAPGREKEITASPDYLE
Metric Name: Kd

Some binders with known Kd results, for comparison:
| Binder | Kd |
| --- | --- |
| 3C7-VH0-VL3 (antibody, human IgG1, kappa, V domains shown, humanized IgG1) VH: QVQLVQSGAEVKKPGASVKVSCKASGYTFTNYYIHWVRQAPGQGLEWMGAIYPDNGDTSYNQRFKVRATLTADTSTSTVYMELSSLRSEDTAVYYCARAFTYWGQGTTVTVSS VL: DIQMTQSPSSLSASVGDRVTITCGASENIYGALNWYQRKPGKSPKLLIYGATNLADGVPSRFSGSGSGTDYTLTISSLQPEDVATYYCQNVLSTPYTFGGGTKLEIKR | 13.6 nM |
| 3C7-VH3-VL0 (antibody, human IgG1, kappa, V domains shown, humanized IgG1) VH: QVQLVQSGAEVKKPGASVKVSCKASGYIFRNYYIHWVKQAPGQGLEWMGAIYPDNGDTSYNQRFKVRATLTADTSTSTVYMELSSLRSEDTAVYYCARAFTYWGQGTTVTVSS VL: DIQMTQSPSSLSASVGDRVTITCRASENIYGALNWYQQKPGKAPKLLIYGATNLADGVPSRFSGSGSGTDFTLTISSLQPEDFATYYCQNVLSTPYTFGGGTKVEIKR | 2.51 nM |
| 3C7-VH1-VL0 (antibody, human IgG1, kappa, V domains shown, humanized IgG1) VH: QVQLVQSGAEVKKPGASVKVSCKASGYIFTNYYIHWVRQAPGQGLEWMGAIYPDNGDTSYNQRFKVRATLTADTSTSTVYMELSSLRSEDTAVYYCARAFTYWGQGTTVTVSS VL: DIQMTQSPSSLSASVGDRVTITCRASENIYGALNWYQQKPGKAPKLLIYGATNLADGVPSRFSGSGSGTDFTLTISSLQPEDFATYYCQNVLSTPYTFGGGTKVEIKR | 1.89 nM |
| 3C7-VH2-VL2 (antibody, human IgG1, kappa, V domains shown, humanized IgG1) VH: QVQLVQSGAEVKKPGASVKVSCKASGYIFRNYYIHWVRQAPGQGLEWMGAIYPDNGDTSYNQRFKVRATLTADTSTSTVYMELSSLRSEDTAVYYCARAFTYWGQGTTVTVSS VL: DIQMTQSPSSLSASVGDRVTITCGASENIYGALNWYQRKPGKAPKLLIYGATNLADGVPSRFSGSGSGTDYTLTISSLQPEDFATYYCQNVLSTPYTFGGGTKLEIKR | 2.03 nM |
| 3C7-VH0-VL2 (antibody, human IgG1, kappa, V domains shown, humanized IgG1) VH: QVQLVQSGAEVKKPGASVKVSCKASGYTFTNYYIHWVRQAPGQGLEWMGAIYPDNGDTSYNQRFKVRATLTADTSTSTVYMELSSLRSEDTAVYYCARAFTYWGQGTTVTVSS VL: DIQMTQSPSSLSASVGDRVTITCGASENIYGALNWYQRKPGKAPKLLIYGATNLADGVPSRFSGSGSGTDYTLTISSLQPEDFATYYCQNVLSTPYTFGGGTKLEIKR | 11.6 nM |

Please examine the following record next.
What value of Kd has been recorded for this entry: 3H9-VH2-VL0 (antibody, human IgG1, kappa, V domains shown, humanized IgG1) VH: QVQLVQSGAEVKKPGASVKVSCKASGYTFSFYNMHWVRQAPGQGLEWIGLIYPDNGDTSYNQKFKGRATLTADTSTSTVYMELSSLRSEDTAVYYCARGGLDYWGQGTTVTVSS VL: DIQMTQSPSSLSASVGDRVTITCRASENIYSNLAWYQQKPGKAPKLLIYAATNLADGVPSRFSGSGSGTDFTLTISSLQPEDFATYYCQHFWGTPYTFGGGTKVEIKR
2.64 nM
